# target entity: T1, I-AniI K227M/Q171K (catalytically inactive) (Aspergillus nidulans, UniProt P03880 P03880:235-488, F80K,L233K,Q171K,K227M)
# T1 sequence: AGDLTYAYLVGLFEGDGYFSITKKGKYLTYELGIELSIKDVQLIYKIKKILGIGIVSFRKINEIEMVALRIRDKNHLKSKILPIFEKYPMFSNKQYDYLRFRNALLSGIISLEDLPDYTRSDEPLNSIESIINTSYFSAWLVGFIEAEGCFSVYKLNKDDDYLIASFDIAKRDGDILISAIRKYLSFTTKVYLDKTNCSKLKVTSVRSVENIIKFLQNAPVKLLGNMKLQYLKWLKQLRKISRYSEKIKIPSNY
# experiment notes: ITC; catalytically inactive
quantity: Kd (nM)
Number only, in nM; omit the unit.

Q: GET /values?readout=Kd&item= I-AniI Lib4 target site (dsDNA) DNA 1: TGAGGAGGTTACTCTGTTA DNA 2: TAACAGAGTAACCTCCTCA
Ans: 62
